PARTICULARS: 313.15 K; 101 kPa; Liquid
± gives the expanded uncertainty stated by the source.

| CPD SMILES | viscosity |
| --- | --- |
| CCCCCCCCCCCO | 7.841 ± 0.24 mPa·s |
| CCCCCCCCCCO | 6.831 ± 0.21 mPa·s |
| CCCCCCCCCO | 5.668 ± 0.19 mPa·s |
| CCCCCCCCO | 4.54 ± 0.15 mPa·s |

* * *

PARTICULARS: 308.15 K; 101 kPa; Liquid
Listed next: entries and their corresponding mass density.
REPORTED METRIC: mass density (kg/m3)

| COMPOUND | VAL |
| --- | --- |
| CCCCCCCCCCO [decan-1-ol] | 819.6 |
| CCCCCCCCCCCO [1-undecanol] | 821.7 |
| CCCCCCCCO [octan-1-ol] | 815 |
| CCCCCCCCCO [nonan-1-ol] | 817.8 |

Just for reference, the NIST ThermoML archive (doi:10.1021/je050200w) is where these values come from.
